- SYSTEM_TESTED: Torsin-1A-interacting protein 1 (Homo sapiens) (UniProt Q5JTV8)
- Sequence (Q5JTV8 whole entry, looked up): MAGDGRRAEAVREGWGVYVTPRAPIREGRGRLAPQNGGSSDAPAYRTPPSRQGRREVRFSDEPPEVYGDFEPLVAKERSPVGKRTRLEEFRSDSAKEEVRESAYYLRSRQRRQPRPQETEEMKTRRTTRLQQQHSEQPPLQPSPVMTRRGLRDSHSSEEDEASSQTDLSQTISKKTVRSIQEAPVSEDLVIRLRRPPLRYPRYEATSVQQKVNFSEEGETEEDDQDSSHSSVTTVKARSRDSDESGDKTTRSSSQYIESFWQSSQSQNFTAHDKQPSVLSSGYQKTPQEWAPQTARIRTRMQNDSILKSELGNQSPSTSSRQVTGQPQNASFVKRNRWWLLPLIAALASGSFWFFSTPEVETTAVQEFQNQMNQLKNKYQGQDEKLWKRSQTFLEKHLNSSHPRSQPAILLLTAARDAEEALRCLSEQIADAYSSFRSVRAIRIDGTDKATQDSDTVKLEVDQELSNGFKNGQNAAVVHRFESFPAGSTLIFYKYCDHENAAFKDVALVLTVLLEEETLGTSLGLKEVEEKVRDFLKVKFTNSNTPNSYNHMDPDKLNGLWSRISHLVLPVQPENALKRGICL
- ASSAY_PROTOCOL: LAP1 binders from COS7 cell lysate, primary screen, small-molecule microarray, 635/667 nm fluorescence (AID 1116)
- SETUP_CONDITIONS: COS7-hLAP1 lysate binding, 635 nm fluorescence, higher = more signal
Cut-off 0.8 on composite z-score, inclusive. At or above means 1.0; below means 0.0.

Prompt line: Item "CC(C)OC(=O)C=C1C[C@@H](c2ccc(C(F)(F)F)cc2)O[C@@H](c2ccc(C(F)(F)F)cc2)O1" with composite z-score of 0.8 or above?
Response line: 1.0

Prompt line: Is the recorded value of composite z-score equal to or greater than 0.8 for this compound? "COc1ccc(-c2nc(-c3ccccc3)c3c(c2C)CO[Si]3(C(C)C)C(C)C)cn1"
Response line: 0.0

Prompt line: Could you please find out whether "C=CC[C@@]1(C(=O)N2CCOCC2)N=C(c2ccc(OCCCO)cc2)O[C@@H]1c1ccccc1CN=[N+]=[N-]" has composite z-score that meets 0.8 or exceeds it?
Response line: 1.0

Prompt line: Has O=C1NC(=O)C2C1C=CC(C(O)c1c(F)cccc1Cl)N2Nc1ccc(Cl)cc1Cl (configuration not stated) a recorded composite z-score greater than or equal to 0.8?
Response line: 1.0

Prompt line: Given "COc1ccc([Si](C)(C)[C@H]2[C@H](CCO)O[C@@]3(C(=O)N(Cc4cccc(N5C(=O)COc6ccccc65)c4)c4ccccc43)[C@@H]2C)cc1" , state whether its composite z-score is at least 0.8.
Response line: 0.0

Prompt line: Reported composite z-score reaches at least 0.8 for "CC(C)C(=C=CC[C@H](O)c1ccc(OCCO)cc1)C[C@H](O)c1ccccn1" ?
Response line: 1.0

----------
- ASSAY_PROTOCOL: binders from COS7 lysate, DM2A8 probe, primary screen, torsin A project, cell lysate, small-molecule microarray, fluorescence 635/667 (AID 1065)
- SETUP_CONDITIONS: higher = more signal, COS7 lysate expressing mutant human TOR1A
Could you please report measured composite z-score for the items listed next?

Lab note: CN(C)C(=O)C1N=C(c2ccc(OCCCO)cc2)N(c2ccccc2)O1 (stereo unspecified) gave composite z-score of 0.18

Record CC[C@H]1C2=C3C(CC[C@H]4C(OCc5ccc(F)cc5C(F)(F)F)OC[C@](C)([C@@H]34)N(C(=O)OC(C)(C)C)C2)C(COC)C1COC (stereo partly specified) , field composite z-score: -0.281

Value of composite z-score reported for the compound "COc1cc2c(cc1OC)CN(C(=O)[C@@H]1[C@H]3C(=O)O[C@H](c4ccccc4)[C@H](c4ccccc4)N3[C@H](c3ccc(OCCO)cc3)[C@@]13C(=O)Nc1ccc(C#CC4(O)CCCCCC4)cc13)CC2" is 0.416

The compound CC(C)(C)N1CC=CC23O[C@@H]4C=CCCOC(=O)C4[C@H]2C(=O)N(CCO)[C@@H]3C1=O (stereo partly specified) showed composite z-score equal to -0.46

// field: composite z-score; key: NC(=O)N1C(=O)C2C(C1=O)C1C=C(CCCO)C2C(c2cccs2)N1Cc1cccc(OC(F)(F)F)c1 (stereo unspecified) ; value = 0.118

Lab note: measured composite z-score of OCCCC1=CC(c2ccc(CN3CCCC3)cc2)N(Cc2sc3ccccc3c2Cl)CC1 (stereo unspecified) was 0.41

Form: compound = Cc1cc(C)cc(N2C(=O)CSC2c2cccc([N+](=O)[O-])c2)c1 (stereo unspecified) ; composite z-score = 0.571

Lab note: "COCCOC(=O)N1C(=O)[C@@]2(c3cc(C#CC4=CCCCC4)ccc31)[C@H](c1ccccc1OCCO)N1[C@H](c3ccccc3)[C@H](c3ccccc3)OC(=O)[C@H]1[C@@H]2C(=O)N1CCCCCCC1" gave composite z-score of 0.107

According to the records, this compound "COC(=O)c1c2oc(c1C(=O)OC)C(=O)N(Cc1ccccc1)Cc1cn(nn1)C[C@H](Cc1ccccc1)NC(=O)N[C@H](CO)CC2" displays composite z-score of -0.277

For reference, reported composite z-score for CC(c1ccccc1)C(O)C1C=CC2C(=O)N(c3ccccc3)C(=O)C2N1Nc1ccc([N+](=O)[O-])cc1 (stereo unspecified) stands at 0.031

Item: "CC(C)C[C@@H]1NC(=O)[C@@H]2C[C@H](C(=O)NCCCCCN)[C@H](c3ccc(O)cc3)N2C1=O" | composite z-score: 0.174

// CCCCCCCCCCC(O)C1C=CC2C(=O)N(C)C(=O)C2N1NC(=O)OC(C)(C)C (stereo unspecified) : composite z-score value = -0.127

// "COC(=O)[C@@]1(Cc2ccc(F)cc2)[C@H]2c3cc(C(=O)N4CCCC4)n(CCc4ccc(O)c(O)c4)c3C[C@H]2CN1C(=O)c1ccccc1" : composite z-score value = 0.109

# composite z-score of CCOC(=O)C1CCCCN1 (stereo unspecified) = 0.0953

response.value for "[N-]=[N+]=NCc1ccccc1[C@H]1OC(c2ccc(OCCCO)cc2)=N[C@@]1(CCS(=O)(=O)c1ccccc1)C(=O)N1CCCCC1" (field: composite z-score) = 1.28

Data point: "CO[C@H]1O[C@H](CO)[C@@H](OC(=O)Nc2ccc3c(c2)OCO3)[C@H](OC(=O)c2cc3ccccc3[nH]2)[C@H]1OC(=O)c1cc2ccccc2[nH]1" ; composite z-score = -0.152
